Test system: HL-60(TB) leukemia
Assay info: NCI tumour cell line growth inhibition, 48 h
Property name: TGI

Look over these answered cases.
[in] Fill in reported TGI for this entry: Cc1[nH]c(=O)nc(N/N=C/c2ccc(Cl)c(Cl)c2)c1C(=O)Nc1ccc(Cl)c(Cl)c1
[out] > 78.2 µM

[in] Entry CCOC(=O)CCC1(C(=O)OC)CCCC1=O (stereo not drawn) needs its TGI filled in; supply it.
[out] > 100 µM

Moving on to the next compound.
[in] Give the reported TGI for this compound. Oc1cccc(-c2nc3ccccc3s2)c1
[out] > 100 µM

====

Test system: SK-MEL-28 melanoma
Assay info: NCI tumour cell line growth inhibition, 48 h
Property name: TGI

// below: answered compounds
[in] # assay system SK-MEL-28 melanoma: give TGI of COc1cc(OC)c(CSCC(NC(=O)OCC2c3ccccc3-c3ccccc32)C(=O)O)c(OC)c1 (centres undefined)
[out] > 10 µM

[in] Report the value of TGI obtained on SK-MEL-28 melanoma for CC(C)=CC(=O)O[C@@H]1CC(C)(C)CC2C3=CCC4[C@]56CC[C@](O)(OC5)C(C)(C)C6CC[C@@]4(C)C3(C)CC[C@]21C(=O)O (some centres undefined) .
[out] > 100 µM

[in] Given CC1=NN(C(=O)CC(=O)Nc2cccc(Cl)c2)C(=O)C1N=Nc1ccc(S(N)(=O)=O)cc1 (centres undefined) , report its TGI on SK-MEL-28 melanoma.
[out] > 100 µM

Consider the record given below.
[in] Enter measured TGI, system SK-MEL-28 melanoma, for the compound shown: CC1Cc2c(N(C)C)ncnc2N(C)c2ccc(Cl)cc21 (centres undefined)
[out] > 100 µM
